# System: phosphorylation of Cdc2 Y15 (Wee1 substrate) in A427 cells
# assay_method_text: Phosphorylated Cdc2 MSD Electrochemiluminescence Assay
# Format: cell-based
# assay_conditions: Homo sapiens, A-427, pCDC2 MSD
quantity: IC50

Worked cases, answers included:
{"columns": ["compound", "target_or_test_system", "IC50"],
 "data": [
  ["CNCc1cccc(N2c3nc(Nc4ccc(N5C[C@@H](C)O[C@@H](C)C5)cc4)ncc3[C@]3(C)COC(C)(C)C[C@H]23)n1 (single isomer, unassigned)", "phosphorylation of Cdc2 Y15 (Wee1 substrate) in A427 cells", "0.1 to 1 µM"],
  ["CNCc1cccc(N2c3nc(Nc4ccc(N5C[C@@H]6C[C@H]5CO6)cc4)ncc3[C@@]3(C)COC(C)(C)C[C@@H]23)n1 (single isomer, unassigned)", "phosphorylation of Cdc2 Y15 (Wee1 substrate) in A427 cells", "< 0.1 µM"]
]}

**Q:** Can you look up the measured IC50 of CC1(C)C[C@H]2N(c3cccc(N=S(C)(C)=O)n3)c3nc(Nc4ccc([C@@H]5CCCN5)nc4)ncc3[C@@]2(C)CO1 (single isomer, unassigned) for me?
**A:** 0.1 to 1 µM

**Q:** Can you look up the measured IC50 of C[C@H]1COC(=O)N1c1cccc(N2c3nc(Nc4ccc(N5CCN(C)CC5)nc4)ncc3[C@@]3(C)COC(C)(C)C[C@@H]23)n1 (single isomer, unassigned) for me?
**A:** 0.1 to 1 µM

**Q:** Can you look up the measured IC50 of CN1C[C@@H]2CN(c3ccc(Nc4ncc5c(n4)N(c4cccc(N=S(C)(C)=O)n4)[C@@H]4CC(C)(C)OC[C@]54C)cc3)C[C@@H]2C1 (single isomer, unassigned) for me?
**A:** 0.1 to 1 µM

----------
# target_or_test_system: Wee1 kinase domain (Homo sapiens)
# Construct: Wee1 kinase domain was purchased from Carna (catalog #05-177); purchased Carna 05-177
# assay_method_text: Wee1 Kinase Biochemical Assay (ADP-Glo)
# assay_conditions: Wee1 kinase domain, 15 uM ATP, ADP-Glo
quantity: IC50

{"columns": ["molecule", "IC50"],
 "data": [
  ["C[C@H]1COC(=O)N1c1cccc(N2c3nc(Nc4ccc(N5CC6(CN(C)C6)C5)cc4)ncc3[C@]3(C)COC(C)(C)C[C@H]23)n1 (single isomer, unassigned)", "10 to 100 nM"]
]}

**Q:** Can you look up the measured IC50 of CNCc1cccc(N2c3nc(Nc4ccn([C@H]5CCOC5)c(=O)c4)ncc3[C@@]3(C)COC(C)(C)C[C@@H]23)n1 (single isomer, unassigned) for me?
**A:** < 10 nM

**Q:** Can you look up the measured IC50 of C[C@H]1COC(=O)N1c1cccc(N2c3nc(Nc4ccc([C@H]5CCN(C)C5)cc4)ncc3[C@@]3(C)COC(C)(C)C[C@@H]23)n1 (single isomer, unassigned) for me?
**A:** < 10 nM

----------
# target_or_test_system: Wee1 kinase domain (Homo sapiens, UniProt P30291)
# Construct: Wee1 kinase domain was purchased from Carna (catalog #05-177); purchased Carna 05-177
# Sequence (P30291 299-569 limits assumed): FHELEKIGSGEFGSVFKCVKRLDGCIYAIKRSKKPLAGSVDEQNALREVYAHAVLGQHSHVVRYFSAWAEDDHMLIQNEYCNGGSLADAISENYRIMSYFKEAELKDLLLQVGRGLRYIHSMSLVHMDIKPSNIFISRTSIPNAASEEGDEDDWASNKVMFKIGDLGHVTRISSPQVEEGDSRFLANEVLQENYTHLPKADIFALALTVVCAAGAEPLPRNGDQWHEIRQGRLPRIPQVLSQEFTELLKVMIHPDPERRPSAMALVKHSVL
# assay_method_text: Wee1 Kinase Biochemical Assay (ADP-Glo)
# assay_conditions: Wee1 kinase domain, 15 uM ATP, ADP-Glo
// values below are reported IC50

Worked cases, answers included:
{"columns": ["molecule", "recorded_value"],
 "data": [
  ["CNCc1cccc(N2c3nc(Nc4ccc([C@@H]5CC(=O)N(C)C5)cc4)ncc3[C@]3(C)COC(C)(C)C[C@H]23)n1 (single isomer, unassigned)", "10 to 100 nM"],
  ["Cc1cc(Nc2ncc3c(n2)N(c2cccc(N=S(C)(C)=O)n2)[C@H]2CC(C)(C)OC[C@@]32C)ccc1[C@H]1CCN(C)C1 (single isomer, unassigned)", "10 to 100 nM"],
  ["CNCc1cccc(N2c3nc(Nc4ccc(N5C6CCC5COC6)c(C)c4)ncc3[C@@]3(C)COC(C)(C)C[C@@H]23)n1 (single isomer, unassigned)", "< 10 nM"],
  ["CNCc1cccc(N2c3nc(Nc4ccc(N5CCC(F)(F)CC5)cc4)ncc3[C@]3(C)COC(C)(C)C[C@H]23)n1 (single isomer, unassigned)", "10 to 100 nM"]
]}

**Q:** Can you look up the measured IC50 of C[C@H]1COC(=O)N1c1cccc(N2c3nc(Nc4ccc([C@H]5CCNC5)nc4)ncc3[C@@]3(C)COC(C)(C)C[C@@H]23)n1 (single isomer, unassigned) for me?
**A:** < 10 nM

----------
// values below are reported pIC50
# target_or_test_system: Wee1 kinase domain (Homo sapiens, UniProt P30291)
# Construct: Wee1 kinase domain was purchased from Carna (catalog #05-177); purchased Carna 05-177
# assay_method_text: Wee1 Kinase Biochemical Assay (ADP-Glo)
# assay_conditions: class symbols; 1 nM Wee1 enzyme, 15 uM ATP, 4 hours at 25° C.
pIC50: −log10 of the molar value.

Worked cases, answers included:
{"columns": ["compound", "recorded_value"],
 "data": [
  ["CN1CC[C@H]2CN(c3ccc(Nc4ncc5c(n4)N(c4cccc(N6CCOC6=O)n4)[C@H]4CC(C)(C)OC[C@@]54C)cc3)C[C@H]21 [Example 685]", "7.00 to 8.00"],
  ["CNCc1cccc(N2c3nc(Nc4ccc([C@H]5CCNC5)cc4)ncc3[C@@]3(C)COC(C)(C)C[C@@H]23)n1 (single isomer, unassigned) [Example 452]", "> 8.00"],
  ["CN=[S@@](C)(=O)c1cccc(N2c3nc(Nc4ccc(N5CC6(CN(C)C6)C5)cc4)ncc3[C@@]3(C)COC(C)(C)C[C@@H]23)n1 [Example 771]", "> 8.00"]
]}

**Q:** Lab note: need pIC50 for CC1(C)C[C@H]2N(c3cccc(N=S(C)(C)=O)n3)c3nc(NC(=O)c4ccccc4F)ncc3[C@@]2(C)CO1 (single isomer, unassigned) [Example 409] on Wee1 kinase domain (Homo sapiens, UniProt P30291), anyone have it?
**A:** 6.00 to 7.00

**Q:** Lab note: need pIC50 for CC1(C)C[C@@H]2N(c3cccc([C@H]4CNCCO4)n3)c3nc(Nc4ccc(N5CCOCC5)cc4)ncc3[C@]2(C)CO1 [Example 738] on Wee1 kinase domain (Homo sapiens, UniProt P30291), anyone have it?
**A:** 7.00 to 8.00

**Q:** Lab note: need pIC50 for Cn1cc(C(=O)Nc2ncc3c(n2)N(c2cccc(N=S(C)(C)=O)n2)[C@@H]2CC(C)(C)OC[C@]32C)cn1 (single isomer, unassigned) [Example 408] on Wee1 kinase domain (Homo sapiens, UniProt P30291), anyone have it?
**A:** > 8.00

**Q:** Lab note: need pIC50 for CN1CCN(c2ccc(Nc3ncc4c(n3)N(c3ccccn3)[C@@H]3CC(C)(C)OC[C@]43C)cc2)CC1 (single isomer, unassigned) [Example 722] on Wee1 kinase domain (Homo sapiens, UniProt P30291), anyone have it?
**A:** > 8.00

**Q:** Lab note: need pIC50 for CN[C@@H]1CCc2ccc(N3c4nc(Nc5ccc(N6CCOCC6)cc5)ncc4[C@]4(C)COC(C)(C)C[C@H]34)nc21 (single isomer, unassigned) [Example 554] on Wee1 kinase domain (Homo sapiens, UniProt P30291), anyone have it?
**A:** 6.00 to 7.00

**Q:** Lab note: need pIC50 for Cc1cc(Nc2ncc3c(n2)N(c2cccc([C@H]4CCCN4)n2)[C@@H]2CC(C)(C)OC[C@]32C)ccc1N1CCOCC1 (single isomer, unassigned) [Example 522] on Wee1 kinase domain (Homo sapiens, UniProt P30291), anyone have it?
**A:** > 8.00

**Q:** Lab note: need pIC50 for CN1CC2CC1CN2c1ccc(Nc2ncc3c(n2)N(c2cccc(N=S(C)(C)=O)c2)C2CC(C)(C)OCC32C)cc1 (single isomer, unassigned) [Example 712] on Wee1 kinase domain (Homo sapiens, UniProt P30291), anyone have it?
**A:** > 8.00

**Q:** Lab note: need pIC50 for Cc1cc(Nc2ncc3c(n2)N(c2cccc([C@H]4CCCN4)n2)[C@H]2CC(C)(C)OC[C@@]32C)ccc1N1CCOCC1 (single isomer, unassigned) [Example 521] on Wee1 kinase domain (Homo sapiens, UniProt P30291), anyone have it?
**A:** 6.00 to 7.00

----------
// values below are reported IC50
# target_or_test_system: Wee1 kinase domain (Homo sapiens)
# Construct: Wee1 kinase domain was purchased from Carna (catalog #05-177); purchased Carna 05-177
# assay_method_text: Wee1 Kinase Biochemical Assay (ADP-Glo)
# assay_conditions: class symbols; 1 nM Wee1 enzyme, 15 uM ATP, 4 hours at 25° C.

Worked cases, answers included:
{"columns": ["molecule", "target_or_test_system", "quantity", "recorded_value"],
 "data": [
  ["CN1CCN(c2cccc(N3c4nc(Nc5ccc(N6CCOCC6)cc5)ncc4[C@@]4(C)COC(C)(C)C[C@@H]34)n2)CC1 (single isomer, unassigned) [Example 535]", "Wee1 kinase domain (Homo sapiens)", "IC50", "< 0.01 µM"],
  ["CN1CC[C@@H]2CN(c3ccc(Nc4ncc5c(n4)N(c4cccc(N6CCOC6=O)n4)[C@@H]4CC(C)(C)OC[C@]54C)cc3)C[C@@H]21 [Example 705]", "Wee1 kinase domain (Homo sapiens)", "IC50", "< 0.01 µM"],
  ["CN1C[C@@H]2C[C@H]1CN2c1ccc(Nc2ncc3c(n2)N(c2cccc(P(C)(C)=O)n2)[C@@H]2CC(C)(C)OC[C@]32C)cc1 [Example 777]", "Wee1 kinase domain (Homo sapiens)", "IC50", "< 0.01 µM"],
  ["CN1C[C@@H]2C[C@H]1CN2c1ccc(Nc2ncc3c(n2)N(c2cccc(C(C)(C)O)n2)[C@H]2CC(C)(C)OC[C@@]32C)cc1F (single isomer, unassigned) [Example 432]", "Wee1 kinase domain (Homo sapiens)", "IC50", "0.1 to 1 µM"],
  ["CN1CC2(C1)CN(c1ccc(Nc3ncc4c(n3)N(c3cccc(C(C)(C)O)n3)[C@H]3CC(C)(C)OC[C@@]43C)cc1)C2 (single isomer, unassigned) [Example 444]", "Wee1 kinase domain (Homo sapiens)", "IC50", "0.1 to 1 µM"],
  ["CN1[C@@H]2C[C@H]1CN(c1ccc(Nc3ncc4c(n3)N(c3cccc(N5CCCC5=O)n3)[C@@H]3CC(C)(C)OC[C@]43C)cc1)C2 [Example 703]", "Wee1 kinase domain (Homo sapiens)", "IC50", "< 0.01 µM"]
]}

**Q:** Lab note: need IC50 for CNCc1cccc(N2c3nc(Nc4ccc(N5C[C@H]6C[C@@H](C5)O6)cc4)ncc3[C@]3(C)COC(C)(C)C[C@H]23)n1 (single isomer, unassigned) [Example 482] on Wee1 kinase domain (Homo sapiens), anyone have it?
**A:** 0.1 to 1 µM

**Q:** Lab note: need IC50 for CC1(C)C[C@H]2N(c3cccc(N=S(C)(C)=O)n3)c3nc(NC(=O)[C@H]4C[C@@H]4C4CCOCC4)ncc3[C@@]2(C)CO1 (single isomer, unassigned) [Example 411] on Wee1 kinase domain (Homo sapiens), anyone have it?
**A:** < 0.01 µM

**Q:** Lab note: need IC50 for CC[C@]1(O)CCc2ccc(N3c4nc(Nc5ccc(N6CCN(C)CC6)cc5)ncc4[C@@]4(C)COC(C)(C)C[C@@H]34)nc21 [Example 788] on Wee1 kinase domain (Homo sapiens), anyone have it?
**A:** < 0.01 µM

**Q:** Lab note: need IC50 for CN[C@@H](C)c1cc(C)nc(N2c3nc(Nc4ccc(N5CCOCC5)cc4)ncc3[C@]3(C)COC(C)(C)C[C@H]23)c1 (single isomer, unassigned) [Example 559] on Wee1 kinase domain (Homo sapiens), anyone have it?
**A:** ≥ 1 µM

**Q:** Lab note: need IC50 for CC1(C)C[C@H]2N(c3cccc(N4CCCC4=O)n3)c3nc(Nc4ccc([C@@H]5CCNC5)cc4)ncc3[C@@]2(C)CO1 [Example 632] on Wee1 kinase domain (Homo sapiens), anyone have it?
**A:** < 0.01 µM

Ref: patent US20260166039A1
